target: T1, hVISTA-ECD 6-His tag (human, UniProt Q9H7M9 33-193); assay: SPR 37 C, Ab on Protein A, pH 7.4
T1 construct: also called monovalent hVISTA-ECD; human VISTA
T1 sequence (Q9H7M9 other isoform, or with tags, fused parts or gaps limits assumed): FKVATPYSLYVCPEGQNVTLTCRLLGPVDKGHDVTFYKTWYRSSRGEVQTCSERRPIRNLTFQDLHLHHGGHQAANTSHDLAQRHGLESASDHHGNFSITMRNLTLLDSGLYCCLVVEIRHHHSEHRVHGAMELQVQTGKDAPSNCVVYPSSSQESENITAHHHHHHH
pKd: −log10 of the molar value.
Think of 6 as a floor: if pKd stands on it or above, it is class 1; beneath it, class 0.

binder	answer.label
P1-077855 (P1-068744 E31S E59Y) (antibody, V domains shown) VH: QVQLVESGGGVVQPGRSLRLSCAASGFTFSSYAMHWVRQAPGKGLEWVAHIWYDGSNKYYADSVKGRFTISRDNSKNTLYLQMNSLRAEDTAVYYCARDSGFYESYYFDEWGQGTLVTVSS VL: EIVLTQSPATLSLSPGERATLSCRASQSVSSSYLAWYQQKPGQAPRLLIYDASNRATGIPARFSGSGSGTDFTLTISSLEPEDFATYYCQQYNSYPYTFGQGTKLEIK	class 0

Qu. Would you say P1-077849 (P1-068744 E59Y E100S) (antibody, V domains shown) VH: QVQLVESGGGVVQPGRSLRLSCAASGFTFSEYAMHWVRQAPGKGLEWVAHIWYDGSNKYYADSVKGRFTISRDNSKNTLYLQMNSLRAEDTAVYYCARDSGFYSSYYFDEWGQGTLVTVSS VL: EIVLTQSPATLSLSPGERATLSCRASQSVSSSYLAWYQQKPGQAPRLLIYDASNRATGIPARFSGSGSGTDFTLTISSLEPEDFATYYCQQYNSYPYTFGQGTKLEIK shows pKd at minimum 6?
Ans. class 0

Qu. Entry P1-077845 (P1-068744 E31S H50I) (antibody, V domains shown) VH: QVQLVESGGGVVQPGRSLRLSCAASGFTFSSYAMHWVRQAPGKGLEWVAIIWYDGSNKYEADSVKGRFTISRDNSKNTLYLQMNSLRAEDTAVYYCARDSGFYESYYFDEWGQGTLVTVSS VL: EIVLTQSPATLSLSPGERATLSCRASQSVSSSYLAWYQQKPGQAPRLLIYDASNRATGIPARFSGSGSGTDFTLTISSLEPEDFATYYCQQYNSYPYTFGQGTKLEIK please
Ans. class 1

Qu. Entry P1-077847 (P1-068744 H50I E59Y) (antibody, V domains shown) VH: QVQLVESGGGVVQPGRSLRLSCAASGFTFSEYAMHWVRQAPGKGLEWVAIIWYDGSNKYYADSVKGRFTISRDNSKNTLYLQMNSLRAEDTAVYYCARDSGFYESYYFDEWGQGTLVTVSS VL: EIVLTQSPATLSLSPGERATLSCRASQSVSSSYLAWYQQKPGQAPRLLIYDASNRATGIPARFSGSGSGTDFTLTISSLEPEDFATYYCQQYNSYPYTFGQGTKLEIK please
Ans. class 1
